Test: blockers of an Epstein-Barr virus protein-peptide interaction – biochemical, fluorescence polarization, dose response (AID 1419)
Settings: cell-free protein-peptide binding, 2 h
Active and inactive are the calls of the source. The rule behind the calls is not given here.
Please state which outcome applies, choosing from T = active, F = inactive

Take a look at these entries with their results.
CC(C)c1cc(=O)oc2c3c4c(cc12)CCCN4CCC3 = T
CC(=O)Nc1ccc(NC2=Nc3ccccc3N3C2=Nc2c(c(C)nn2-c2ccccc2)C3c2ccccc2)cc1 (stereo not given) = T
COc1ccc(C(CC(=O)N2CCCC2)c2c(OC)cc(OC)c3c(-c4ccccc4)cc(=O)oc23)cc1 (stereo not given) = F
CCN(CC)c1nc2ccccc2nc1C(C#N)C(=O)NCCc1ccccc1 (stereo not given) = T
CCn1c(CSc2nnc3ccccn23)nc2cc(C(=O)O)ccc21 = T
COc1ccc(/C=C2\N=C(c3c(-c4ccccc4)noc3C)OC2=O)cc1OC = T

I'd appreciate the recorded outcome for `CCn1c(O)c(/C=N/N=C/c2ccccc2)c2ccc(C3=NNC(=O)CC3)cc21` from this test.
T

I'd appreciate the recorded outcome for `Cn1c(=O)c2[nH]c(-c3ccccc3)c(O)c2n(C)c1=O` from this test.
T

I'd appreciate the recorded outcome for `Nc1cc2nc3ccccc3nc2cc1N` from this test.
T

I'd appreciate the recorded outcome for `Cc1cc(-c2cccs2)c2c(N)c(C(=O)c3ccc4c(c3)OCO4)sc2n1` from this test.
T

---

Experiment: blockers of an Epstein-Barr virus protein-peptide interaction – biochemical, fluorescence polarization, dose response (AID 1419)
Settings: cell-free protein-peptide binding, 2 h
Activity calls are given as the source filed them. How the calls were made is not given here.
Please state which outcome applies, choosing from yes = active, no = inactive

Take a look at these entries with their results.
CCOc1ccc(N/C=C/C(=O)c2ccc(OC)cc2)c([N+](=O)[O-])c1 = yes
N#Cc1c(SCC(N)=O)nc2c(c1-c1ccc(O)cc1)CCCC2 = no
CCn1c2ccccc2c2cc(NC(=O)c3ccc(=O)oc3)ccc21 = no
COc1ccc(/C=C2\CCCc3c2nc2ccccc2c3C(=O)O)cc1OC = yes

Let us examine a further case.
I'd appreciate the recorded outcome for `CN(C)c1ccc(Nc2c3c4c(cccc4n(C)c2=O)C(=O)c2ccccc2-3)cc1` from this test.
no

---

Test: blockers of an Epstein-Barr virus protein-peptide interaction – biochemical, fluorescence polarization, dose response (AID 1419)
Settings: cell-free protein-peptide binding, 2 h
Active and inactive are the calls of the source. The rule behind the calls is not given here.
Please state which outcome applies, choosing from active, inactive

Fc1ccc(NCc2cccnc2)cc1F = active
N=C1/C(=C\c2ccc(-c3cccc(C(=O)O)c3)o2)C(=O)N=C2SC=C(c3ccccc3)N12 = active
COc1ccc2nc(C)cc(N3CCOCC3)c2c1 = inactive
CC1(C)CC(=O)C2=C(C1)OC(N)=C(C#N)[C@@H]2c1ccccc1[N+](=O)[O-] = active

I'd appreciate the recorded outcome for `O=Cc1ccc2oc3nc4n(c(=O)c3c(=O)c2c1)CCCS4` from this test.
inactive

I'd appreciate the recorded outcome for Cc1ccc(S(=O)(=O)C(C#N)c2nc3ccccc3nc2N2CCCC2)cc1 (configuration not stated) from this test.
inactive

I'd appreciate the recorded outcome for `O=C(Nc1nnc(Cc2ccccc2)s1)c1cnccn1` from this test.
inactive

---

Assay: blockers of an Epstein-Barr virus protein-peptide interaction – biochemical, fluorescence polarization, dose response (AID 1419)
Conditions: cell-free protein-peptide binding, 2 h
Calls of active or inactive are those of the source. How the calls were made is not given here.
Catalogue of molecules with associated IC50

Below: 8 molecules and their reported IC50.
Cc1ccc(S(=O)(=O)Nc2nc3ccccc3nc2Nc2cccc(S(=O)(=O)N3CCCC3)c2)cc1 = 2.64 µM
CC(=O)Nc1ccc(N2CCc3c(C)c(C#N)c4nc5ccccc5n4c32)cc1 = > 54 µM (inactive)
CCc1ccc2nc3sc(C(=O)N4CCc5ccccc54)c(N)c3cc2c1 = < 0.42 µM
CC(=O)c1ccc(N2C(=O)C3C(C2=O)C(C(=O)c2ccc(Cl)cc2)N2CCCC32)cc1 (stereo unspecified) = 7.19 µM
O=C(Nc1nnc(-c2ccccc2Cl)o1)c1cc2cc([N+](=O)[O-])ccc2s1 = > 54 µM (inactive)
CC(O)CCc1nc2ccc(C(=O)O)cc2[nH]1 (stereo unspecified) = > 54 µM (inactive)
COc1ccccc1Nc1nc2ccc(C)cc2cc1C#N = 16.6 µM
CCC(C)NC(=O)c1ccc(CSCc2cccc(F)c2)o1 (stereo unspecified) = > 54 µM (inactive)

Bench note: what IC50 did `CC(C)N(C(=O)C[n+]1ccc(/C=N/O)cc1)C(C)C` show?
> 54 µM (inactive)

Bench note: what IC50 did `Cn1nc(-c2ccc(Cl)cc2)nc2c(=O)n(C)c(=O)nc1-2` show?
7.16 µM

Bench note: what IC50 did `O=[N+]([O-])c1ccc(-c2cn(-c3ccc(Cl)cc3)c(=S)[nH]2)cc1` show?
> 54 µM (inactive)
